Biological target: Olfr691 (Mus musculus, UniProt Q8VGW5)
Construct: Lucy (N); expressed in transfected cells; host or cells: HEK293T, co-transfected with RTP1S
Sequence (Q8VGW5 1-322): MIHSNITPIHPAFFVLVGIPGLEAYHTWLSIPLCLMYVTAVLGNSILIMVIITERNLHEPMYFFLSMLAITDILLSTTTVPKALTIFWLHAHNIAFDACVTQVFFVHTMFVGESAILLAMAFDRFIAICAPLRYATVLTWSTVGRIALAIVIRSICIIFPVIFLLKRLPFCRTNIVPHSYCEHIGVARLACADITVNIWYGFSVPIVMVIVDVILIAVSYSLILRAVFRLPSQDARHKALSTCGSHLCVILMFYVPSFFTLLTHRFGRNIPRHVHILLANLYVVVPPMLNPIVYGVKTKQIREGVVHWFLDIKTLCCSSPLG
Test: dual-luciferase (cAMP/CREB reporter) ligand screen, Olfr691 in HEK293T cells
Assay type: cell-based
Conditions: chemicals tested individually, screened at 500uM (* also at 100uM)
result type: Olfr691 response in dual-luciferase assay

O=C(O)CC(=O)O [Malonate]; -
O=C1Cc2ccccc2O1; -
C=C(C)C1CC=C(C)C(=O)C1 (stereo not drawn); -
CC(=O)C=O; -
CCC(=O)O [propionate]; +
O=C(O)CCCCCCCCC(=O)O; -
CCCC(=O)O [butyrate]; +
O=C(O)c1ccccc1 [benzoate]; +

Fill in reported Olfr691 response in dual-luciferase assay for this entry: CCCCCCCCCCCC(=O)O -

Consider the compound CCCC1CCOC(C)S1 (stereo not drawn) . State its measured Olfr691 response in dual-luciferase assay. -

Supply recorded Olfr691 response in dual-luciferase assay for O=C/C=C/c1ccccc1 here. -

Find the measured Olfr691 response in dual-luciferase assay of C/C=C/C(=O)O and report it. +

Specify Olfr691 response in dual-luciferase assay for CCCCC(CC)C(=O)O (stereo not drawn) [2-ethylhexanoate] and stop. +

Recall and state the measured Olfr691 response in dual-luciferase assay for CCCC(=O)C(C)=O . -

Write down Olfr691 response in dual-luciferase assay measured for item Cc1cncc(C)n1 -

Answer with reported Olfr691 response in dual-luciferase assay of Fc1ccc(F)c(F)c1 -

State its Olfr691 response in dual-luciferase assay for this compound: C[C@]12CC[C@@H]3c4ccc(O)cc4CC[C@H]3[C@@H]1CC[C@@H]2O [estradiol, reference compound] -

Write down Olfr691 response in dual-luciferase assay measured for item C=CCCC(=O)O +

Recall and state the measured Olfr691 response in dual-luciferase assay for CCCCCOC(=O)CCCCC [Amylhexanoate] . -

Please supply the value of reported Olfr691 response in dual-luciferase assay for the item CCCCCCCO -

# return recorded Olfr691 response in dual-luciferase assay for entry Cc1ccco1 -

Quick one: give measured Olfr691 response in dual-luciferase assay for CCCCC=O -

Output measured Olfr691 response in dual-luciferase assay for this item: O=Cc1ccccc1 -

Fill in reported Olfr691 response in dual-luciferase assay for this entry: O=C1CCCCCCCCCCCCCCCO1 [16-hexadecanolide] -

Specify Olfr691 response in dual-luciferase assay for C=CC(C)(CCC=C(C)C)OC(C)=O (stereo not drawn) [Linalyl acetate] and stop. -

Complete the entry with Olfr691 response in dual-luciferase assay for CCCCCOC(C)=O [amyl acetate] -

Supply measured Olfr691 response in dual-luciferase assay of C=C[C@H](O)CCCCC [(R)-1-Octen-3-ol] in your reply. -

Indicate the recorded Olfr691 response in dual-luciferase assay value for this compound: N[C@@H](CCC(=O)O)C(=O)O [l-glutamate] -

Specify Olfr691 response in dual-luciferase assay for CC(C)(C)C1CCC(O)CC1 (stereo not drawn) and stop. -

###

Target: Olfr691 (Mus musculus)
Construct: Lucy (N); expressed in transfected cells; host or cells: HEK293T, co-transfected with RTP1S
Sequence (Q8VGW5 1-322): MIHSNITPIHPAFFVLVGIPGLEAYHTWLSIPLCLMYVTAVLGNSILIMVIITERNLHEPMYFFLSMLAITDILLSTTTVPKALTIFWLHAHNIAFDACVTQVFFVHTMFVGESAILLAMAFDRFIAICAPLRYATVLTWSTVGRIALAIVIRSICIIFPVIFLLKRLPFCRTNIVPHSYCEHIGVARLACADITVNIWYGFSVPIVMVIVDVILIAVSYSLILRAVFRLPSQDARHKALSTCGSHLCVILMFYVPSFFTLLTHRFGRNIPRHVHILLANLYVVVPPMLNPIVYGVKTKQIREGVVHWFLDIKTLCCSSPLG
Assay: dual-luciferase (cAMP/CREB reporter) ligand screen, Olfr691 in HEK293T cells
Format: cell-based
Details: HEK-293T, 4 h; 0.5 mM ligand; normalized to the response of Olfr691 to the strongest ligand, 4-pentenoate
result type: Relative response (% of 4-pentenoate response) at 500 µM (%)
Respond with the bare value in %.

Solved entries (count: 3):
CCCCCCC(=O)O [heptanoate]; 41
CCCCC(=O)O [valerate]; 98
CCCC(=O)O [butyrate]; 55

Provide Relative response (% of 4-pentenoate response) at 500 µM, system Olfr691 (Mus musculus), entry C=CCCC(=O)O 100

Provide Relative response (% of 4-pentenoate response) at 500 µM, system Olfr691 (Mus musculus), entry CCCCCC(=O)O [caproate] 80

Supply Relative response (% of 4-pentenoate response) at 500 µM measured with Olfr691 (Mus musculus) for CCCCCCCC(=O)O . 20

###

target: Olfr691 (Mus musculus, UniProt Q8VGW5); construct: Lucy (N); expressed in transfected cells; host or cells: HEK293T, co-transfected with RTP1S; assay: dual-luciferase (cAMP/CREB reporter) ligand screen, Olfr691 in HEK293T cells; assay type: cell-based; conditions: chemicals tested individually, screened at 500uM (* also at 100uM)
result type: Olfr691 response in dual-luciferase assay

The examples below pair each entry with its known result.
CC(C)(O)CCCC1=CCC(C=O)CC1 (stereo not shown) [Lyral]; -
CCCCCC(C)O (stereo not shown) [2-Heptanol]; -
CCC(C)S (stereo not shown) [1-methyl-1-propanethiol]; -
CCCC(CCC)C(=O)O [valproate, reference compound]; +
CC(=O)O [acetic acid]; -

Name the recorded Olfr691 response in dual-luciferase assay of the compound listed here: COc1cccc(OC)c1 [1,3-Dimethoxybenzene] -

Identify Olfr691 response in dual-luciferase assay associated with the compound O=C1CCCCCCCCCCCCCCO1 [omega-pentadecalactone] -

Output Olfr691 response in dual-luciferase assay of O=C(O)CC(O)(CC(=O)O)C(=O)O [citric acid] -

Provide Olfr691 response in dual-luciferase assay value for the following compound: OC1CCCCCC1 [cycloheptanol] -

Return value of Olfr691 response in dual-luciferase assay for input C=CCc1ccc(O)c(OC)c1 [eugenol] , no commentary. -
